system: 931267-113-T-J1-PDC KRAS spheroid with HUVEC/MSC, viability; experiment: Anticancer human tumor 931267-113-T-J1-PDC patient-derived colon adenocarcinoma cell line growth inhibition [KRAS2]; settings: second compound 3.16 µM; first compound 10 µM; stronger effect = lower value
readout name: viability, T/C (%)

molecule	system under test	reported value
CC(C)NCC(C(=O)N1CCN(c2ncnc3c2C(C)CC3O)CC1)c1ccc(Cl)cc1 (stereo not given) + CNCc1ccccc1-c1csc(C(C)Nc2nc(C)nc3cc(OC)c(OC)cc23)c1	931267-113-T-J1-PDC KRAS spheroid with HUVEC/MSC, viability	0.16
CCNC(=O)CC1N=C(c2ccc(Cl)cc2)c2cc(OC)ccc2-n2c(C)nnc21 (stereo not given) + C=CC(=O)N1CCN(c2nc(OCC3CCCN3C)nc3c2CCN(c2cccc4cccc(C)c24)C3)CC1CC#N	931267-113-T-J1-PDC KRAS spheroid with HUVEC/MSC, viability	0.17
COc1cc2nccc(Oc3ccc(NC(=O)C4(C(=O)Nc5ccc(F)cc5)CC4)cc3)c2cc1OC + C=CC(=O)N1CCN(c2nc(OCC3CCCN3C)nc3c2CCN(c2cccc4cccc(C)c24)C3)CC1CC#N	931267-113-T-J1-PDC KRAS spheroid with HUVEC/MSC, viability	0.23
CC1OCC2(CCN(c3cnc(Sc4ccnc(N)c4Cl)c(N)n3)CC2)C1N (stereo not given) + COc1cc2nc(C)nc(NC(C)c3cc(N)cc(C(F)(F)F)c3)c2cc1OC1CCOC1	931267-113-T-J1-PDC KRAS spheroid with HUVEC/MSC, viability	67.6
COc1cc(Nc2ncc3c(n2)-c2ccc(Cl)cc2C(c2c(F)cccc2OC)=NC3)ccc1C(=O)O + C=CC(=O)N1CCN(c2nc(OCC3CCCN3C)nc3c2CCN(c2cccc4cccc(C)c24)C3)CC1CC#N	931267-113-T-J1-PDC KRAS spheroid with HUVEC/MSC, viability	0.23

====

tested on: 931267-113-T-J1-PDC KRAS spheroid with HUVEC/MSC, viability; assay: Anticancer human tumor 931267-113-T-J1-PDC cell line growth inhibition [KRAS2]; conditions: curve of first compound; second compound 1 µM;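 further: compound exposure lasted 7 days before the readout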
pIC50: −log10 of the molar value.

compound	pIC50
CN(C)C/C=C/C(=O)Nc1cc2c(Nc3ccc(F)c(Cl)c3)ncnc2cc1O[C@H]1CCOC1 + C=CC(=O)N1CCN(c2nc(OCC3CCCN3C)nc3c2CCN(c2cccc4cccc(C)c24)C3)CC1CC#N	< 7.00
CC1OCC2(CCN(c3cnc(Sc4ccnc(N)c4Cl)c(N)n3)CC2)C1N (stereo not drawn) + C=CC(=O)N1CCN(c2nc(=O)n(-c3c(C)ccnc3C(C)C)c3nc(-c4c(O)cccc4F)c(F)cc23)C(C)C1	< 5.00
COC(=O)c1ccc2c(C(=Nc3ccc(N(C)C(=O)CN4CCN(C)CC4)cc3)c3ccccc3)c(O)[nH]c2c1 + CNCc1ccccc1-c1csc(C(C)Nc2nc(C)nc3cc(OC)c(OC)cc23)c1	6.34

====

test system: 931267-113-T-J1-PDC KRAS spheroid with HUVEC/MSC, viability; assay: Anticancer human tumor 931267-113-T-J1-PDC cell line growth inhibition [KRAS2]; details: second compound 0.316 µM; first compound 1 µM; stronger effect = lower value;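 further: compound exposure lasted 7 days before the readout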;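 on viability, T/C: 100% = DMSO vehicle control viability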
readout name: viability, T/C

molecule	readout name	reported value
CCNC(=O)CC1N=C(c2ccc(Cl)cc2)c2cc(OC)ccc2-n2c(C)nnc21 (stereo not given) + C=CC(=O)N1CCN(c2nc(=O)n(-c3c(C)ccnc3C(C)C)c3nc(-c4c(O)cccc4F)c(F)cc23)C(C)C1	viability, T/C	59.7%
CC1(C)CCC(CN2CCN(c3ccc(C(=O)NS(=O)(=O)c4ccc(NCC5CCOCC5)c([N+](=O)[O-])c4)c(Oc4cnc5[nH]ccc5c4)c3)CC2)=C(c2ccc(Cl)cc2)C1 + CC1OCC2(CCN(c3cnc(Sc4ccnc(N)c4Cl)c(N)n3)CC2)C1N	viability, T/C	72.8%
CC1(C)CCC(CN2CCN(c3ccc(C(=O)NS(=O)(=O)c4ccc(NCC5CCOCC5)c([N+](=O)[O-])c4)c(Oc4cnc5[nH]ccc5c4)c3)CC2)=C(c2ccc(Cl)cc2)C1 + CNCc1ccccc1-c1csc(C(C)Nc2nc(C)nc3cc(OC)c(OC)cc23)c1	viability, T/C	81.1%
CC1COCCN1c1cc(-c2ccnn2C)c2ccnc(-c3ccn[nH]3)c2n1 (stereo not given) + CNCc1ccccc1-c1csc(C(C)Nc2nc(C)nc3cc(OC)c(OC)cc23)c1	viability, T/C	16.9%
CC(=O)OC12COC1CC(O)C1(C)C(=O)C(O)C3=C(C)C(OC(=O)C(O)C(NC(=O)OC(C)(C)C)c4ccccc4)CC(O)(C(OC(=O)c4ccccc4)C21)C3(C)C (stereo not given) + CNCc1ccccc1-c1csc(C(C)Nc2nc(C)nc3cc(OC)c(OC)cc23)c1	viability, T/C	101%
COC(=O)c1ccc2c(C(=Nc3ccc(N(C)C(=O)CN4CCN(C)CC4)cc3)c3ccccc3)c(O)[nH]c2c1 + CC1OCC2(CCN(c3cnc(Sc4ccnc(N)c4Cl)c(N)n3)CC2)C1N	viability, T/C	34.3%
CC1COCCN1c1cc(-c2ccnn2C)c2ccnc(-c3ccn[nH]3)c2n1 (stereo not given) + CC1OCC2(CCN(c3cnc(Sc4ccnc(N)c4Cl)c(N)n3)CC2)C1N	viability, T/C	19%
COc1cc2nccc(Oc3ccc(NC(=O)C4(C(=O)Nc5ccc(F)cc5)CC4)cc3)c2cc1OC + C=CC(=O)N1CCN(c2nc(OCC3CCCN3C)nc3c2CCN(c2cccc4cccc(C)c24)C3)CC1CC#N	viability, T/C	110%
O=C(c1cc(Cc2n[nH]c(=O)c3ccccc23)ccc1F)N1CCN(C(=O)C2CC2)CC1 + CNCc1ccccc1-c1csc(C(C)Nc2nc(C)nc3cc(OC)c(OC)cc23)c1	viability, T/C	88.5%
CC1OCC2(CCN(c3cnc(Sc4ccnc(N)c4Cl)c(N)n3)CC2)C1N (stereo not given) + C=CC(=O)N1CCN(c2nc(OCC3CCCN3C)nc3c2CCN(c2cccc4cccc(C)c24)C3)CC1CC#N	viability, T/C	70.2%

====

System: 931267-113-T-J1-PDC KRAS spheroid with HUVEC/MSC, viability
Assay: Anticancer human tumor 931267-113-T-J1-PDC cell line growth inhibition [KRAS2]; active means viability on the fitted dose curve at most 10% of control; inactive means the rest;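 further: compound exposure lasted 7 days before the readout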
Details: second compound 10 µM; first compound 10 µM
Excerpt: Multicellular complex tumor spheroid response to RAS pathway inhibitors in combination with a targeted agents in patient-derived cell lines with oncogenic KRAS variants from multiple cancer types A high-throughput screen of multi-cell type tumor spheroids was designed to identify active combinations of targeted small molecules and KRAS pathway inhibitors. […] Compounds. […] If the clinical Cmax for an agent had not been determined, the highest concentration tested was 10 microM. […]
Labels: active, inactive

compound	answer label
COc1cc(Nc2ncc3c(n2)-c2ccc(Cl)cc2C(c2c(F)cccc2OC)=NC3)ccc1C(=O)O + C=CC(=O)N1CCN(c2nc(=O)n(-c3c(C)ccnc3C(C)C)c3nc(-c4c(O)cccc4F)c(F)cc23)C(C)C1	inactive
COc1cc2nccc(Oc3ccc(NC(=O)C4(C(=O)Nc5ccc(F)cc5)CC4)cc3)c2cc1OC + CC1OCC2(CCN(c3cnc(Sc4ccnc(N)c4Cl)c(N)n3)CC2)C1N	inactive
COC(=O)c1ccc2c(C(=Nc3ccc(N(C)C(=O)CN4CCN(C)CC4)cc3)c3ccccc3)c(O)[nH]c2c1 + CC1OCC2(CCN(c3cnc(Sc4ccnc(N)c4Cl)c(N)n3)CC2)C1N	active

====

test system: 931267-113-T-J1-PDC KRAS spheroid with HUVEC/MSC, viability; assay: Anticancer human tumor 931267-113-T-J1-PDC cell line growth inhibition [KRAS2]; conditions: second compound 1 µM; first compound 0.001 µM; stronger effect = lower value;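 further: compound exposure lasted 7 days before the readout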;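 on viability, T/C: 100% = DMSO vehicle control viability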
Note to self: class = bucket of viability, T/C, per low (below 70%), medium (70% to below 90%), high (90% or more)

molecule	system under test	answer label
CC(=O)Nc1cccc(-n2c(=O)n(C3CC3)c(=O)c3c(Nc4ccc(I)cc4F)n(C)c(=O)c(C)c32)c1 + CC1OCC2(CCN(c3cnc(Sc4ccnc(N)c4Cl)c(N)n3)CC2)C1N	931267-113-T-J1-PDC KRAS spheroid with HUVEC/MSC, viability	low
Cn1ncnc1[C@H]1c2n[nH]c(=O)c3cc(F)cc(c23)N[C@@H]1c1ccc(F)cc1 + CC1OCC2(CCN(c3cnc(Sc4ccnc(N)c4Cl)c(N)n3)CC2)C1N	931267-113-T-J1-PDC KRAS spheroid with HUVEC/MSC, viability	medium
CC(=O)Nc1cccc(-n2c(=O)n(C3CC3)c(=O)c3c(Nc4ccc(I)cc4F)n(C)c(=O)c(C)c32)c1 + C=CC(=O)N1CCN(c2nc(OCC3CCCN3C)nc3c2CCN(c2cccc4cccc(C)c24)C3)CC1CC#N	931267-113-T-J1-PDC KRAS spheroid with HUVEC/MSC, viability	low
CC(=O)Nc1cccc(-n2c(=O)n(C3CC3)c(=O)c3c(Nc4ccc(I)cc4F)n(C)c(=O)c(C)c32)c1 + C=CC(=O)N1CCN(c2nc(=O)n(-c3c(C)ccnc3C(C)C)c3nc(-c4c(O)cccc4F)c(F)cc23)C(C)C1	931267-113-T-J1-PDC KRAS spheroid with HUVEC/MSC, viability	high
Cn1ncnc1[C@H]1c2n[nH]c(=O)c3cc(F)cc(c23)N[C@@H]1c1ccc(F)cc1 + C=CC(=O)N1CCN(c2nc(=O)n(-c3c(C)ccnc3C(C)C)c3nc(-c4c(O)cccc4F)c(F)cc23)C(C)C1	931267-113-T-J1-PDC KRAS spheroid with HUVEC/MSC, viability	high
CN(C)C/C=C/C(=O)Nc1cc2c(Nc3ccc(F)c(Cl)c3)ncnc2cc1O[C@H]1CCOC1 + C=CC(=O)N1CCN(c2nc(OCC3CCCN3C)nc3c2CCN(c2cccc4cccc(C)c24)C3)CC1CC#N	931267-113-T-J1-PDC KRAS spheroid with HUVEC/MSC, viability	medium
CC(C)n1nc(-c2ccc3oc(N)nc3c2)c2c(N)ncnc21 + COc1cc2nc(C)nc(NC(C)c3cc(N)cc(C(F)(F)F)c3)c2cc1OC1CCOC1	931267-113-T-J1-PDC KRAS spheroid with HUVEC/MSC, viability	high
Cn1ncnc1[C@H]1c2n[nH]c(=O)c3cc(F)cc(c23)N[C@@H]1c1ccc(F)cc1 + CNCc1ccccc1-c1csc(C(C)Nc2nc(C)nc3cc(OC)c(OC)cc23)c1	931267-113-T-J1-PDC KRAS spheroid with HUVEC/MSC, viability	low
CC(=O)Nc1cccc(-n2c(=O)n(C3CC3)c(=O)c3c(Nc4ccc(I)cc4F)n(C)c(=O)c(C)c32)c1 + COc1cc2nc(C)nc(NC(C)c3cc(N)cc(C(F)(F)F)c3)c2cc1OC1CCOC1	931267-113-T-J1-PDC KRAS spheroid with HUVEC/MSC, viability	medium
CC(=O)Nc1cccc(-n2c(=O)n(C3CC3)c(=O)c3c(Nc4ccc(I)cc4F)n(C)c(=O)c(C)c32)c1 + CNCc1ccccc1-c1csc(C(C)Nc2nc(C)nc3cc(OC)c(OC)cc23)c1	931267-113-T-J1-PDC KRAS spheroid with HUVEC/MSC, viability	low
CC(C)n1nc(-c2ccc3oc(N)nc3c2)c2c(N)ncnc21 + C=CC(=O)N1CCN(c2nc(=O)n(-c3c(C)ccnc3C(C)C)c3nc(-c4c(O)cccc4F)c(F)cc23)C(C)C1	931267-113-T-J1-PDC KRAS spheroid with HUVEC/MSC, viability	high
CN(C)C/C=C/C(=O)Nc1cc2c(Nc3ccc(F)c(Cl)c3)ncnc2cc1O[C@H]1CCOC1 + CNCc1ccccc1-c1csc(C(C)Nc2nc(C)nc3cc(OC)c(OC)cc23)c1	931267-113-T-J1-PDC KRAS spheroid with HUVEC/MSC, viability	low
Cn1ncnc1[C@H]1c2n[nH]c(=O)c3cc(F)cc(c23)N[C@@H]1c1ccc(F)cc1 + COc1cc2nc(C)nc(NC(C)c3cc(N)cc(C(F)(F)F)c3)c2cc1OC1CCOC1	931267-113-T-J1-PDC KRAS spheroid with HUVEC/MSC, viability	high
CN(C)C/C=C/C(=O)Nc1cc2c(Nc3ccc(F)c(Cl)c3)ncnc2cc1O[C@H]1CCOC1 + CC1OCC2(CCN(c3cnc(Sc4ccnc(N)c4Cl)c(N)n3)CC2)C1N	931267-113-T-J1-PDC KRAS spheroid with HUVEC/MSC, viability	medium
Cn1ncnc1[C@H]1c2n[nH]c(=O)c3cc(F)cc(c23)N[C@@H]1c1ccc(F)cc1 + C=CC(=O)N1CCN(c2nc(OCC3CCCN3C)nc3c2CCN(c2cccc4cccc(C)c24)C3)CC1CC#N	931267-113-T-J1-PDC KRAS spheroid with HUVEC/MSC, viability	medium
CN(C)C/C=C/C(=O)Nc1cc2c(Nc3ccc(F)c(Cl)c3)ncnc2cc1O[C@H]1CCOC1 + C=CC(=O)N1CCN(c2nc(=O)n(-c3c(C)ccnc3C(C)C)c3nc(-c4c(O)cccc4F)c(F)cc23)C(C)C1	931267-113-T-J1-PDC KRAS spheroid with HUVEC/MSC, viability	high
CC(C)n1nc(-c2ccc3oc(N)nc3c2)c2c(N)ncnc21 + CC1OCC2(CCN(c3cnc(Sc4ccnc(N)c4Cl)c(N)n3)CC2)C1N	931267-113-T-J1-PDC KRAS spheroid with HUVEC/MSC, viability	low
CC(C)n1nc(-c2ccc3oc(N)nc3c2)c2c(N)ncnc21 + CNCc1ccccc1-c1csc(C(C)Nc2nc(C)nc3cc(OC)c(OC)cc23)c1	931267-113-T-J1-PDC KRAS spheroid with HUVEC/MSC, viability	low
CC(C)n1nc(-c2ccc3oc(N)nc3c2)c2c(N)ncnc21 + C=CC(=O)N1CCN(c2nc(OCC3CCCN3C)nc3c2CCN(c2cccc4cccc(C)c24)C3)CC1CC#N	931267-113-T-J1-PDC KRAS spheroid with HUVEC/MSC, viability	medium
